molecular target: 14C-HIgG (human); assay: second round of secondary screening, batch, competitive (MEM), 14C counting
No end group written: not given here.
readoutLabel: Unbound (%)

In [3]: df
Out[3]:
                                   binder  observedmeasurement
0  HDVFHTA-{Toyopearl AF‑Amino‑650 resin}                 91.5

I. HYIDAKA-{Toyopearl AF‑Amino‑650 resin}
II. HYFKFDA-{Toyopearl AF‑Amino‑650 resin}
Just curious, which one has the larger Unbound reading, I or II ? Give the label of your selection. I
